These data points were gathered from patent US20210054097A1.

- STUDY_SYSTEM: T1, FX activation peptide 12-mer DLDPTENPFDLL (human)
- T1 peptide: DLDPTENPFDLL-biotin
- EXPERIMENTAL_PROTOCOL: peptide ELISA
Ends that are not written are not given here.
The following binders are listed with their measured ELISA signal relative to background values.
MEASURED_ENDPOINT: ELISA signal relative to background

| BINDER | NUMERIC_READOUT |
| --- | --- |
| Nb 501A02 (VHH, monovalent control Nanobody; also called control Nanobody; not shown: C-terminal FLAG3 and HIS6 tag) VHH: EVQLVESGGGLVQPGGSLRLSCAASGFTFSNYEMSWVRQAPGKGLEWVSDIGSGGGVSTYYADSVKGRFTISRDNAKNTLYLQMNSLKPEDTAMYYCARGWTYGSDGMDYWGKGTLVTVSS | 0.79 |
| Nb 702C12 (VHH, monovalent Nanobody; not shown: C-terminal FLAG3 and HIS6 tag) VHH: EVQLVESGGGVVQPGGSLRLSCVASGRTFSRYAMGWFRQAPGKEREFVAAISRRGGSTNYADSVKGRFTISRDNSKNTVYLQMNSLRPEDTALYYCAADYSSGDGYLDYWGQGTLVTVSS | 1 |
